# target.or.system: ALDH1A3 (Homo sapiens, UniProt P47895)
# Sequence (P47895 whole entry): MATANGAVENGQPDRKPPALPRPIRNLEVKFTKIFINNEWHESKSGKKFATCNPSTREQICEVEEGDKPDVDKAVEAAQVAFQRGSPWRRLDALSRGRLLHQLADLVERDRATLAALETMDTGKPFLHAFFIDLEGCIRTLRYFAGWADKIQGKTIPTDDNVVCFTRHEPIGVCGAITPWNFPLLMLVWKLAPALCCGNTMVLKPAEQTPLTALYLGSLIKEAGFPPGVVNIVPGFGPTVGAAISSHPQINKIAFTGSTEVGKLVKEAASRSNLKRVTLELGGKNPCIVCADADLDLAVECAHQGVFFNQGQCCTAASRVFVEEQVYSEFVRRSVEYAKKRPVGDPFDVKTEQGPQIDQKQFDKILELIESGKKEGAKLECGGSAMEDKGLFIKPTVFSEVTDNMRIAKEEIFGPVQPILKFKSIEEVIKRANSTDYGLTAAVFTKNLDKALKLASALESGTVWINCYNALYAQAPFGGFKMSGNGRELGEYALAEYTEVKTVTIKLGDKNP
# experiment.summary: Primary biochemical assay, NAD(P)H-Glo Detection System
# Design: His-tag; made in house; host or cells: E. coli Rosetta (DE3)
# protocol.conditions: 30 min pre-incubation, propionaldehyde and NAD at Km
Catalogue of compounds with associated IC50

Reference set, count: 6
• O=C1CCc2cc(OCCN3C(=O)CCC3c3ccccc3)ccc2N1 (stereo not drawn) = < 100 nM
• O=C1CCc2cc(NC(=O)c3ncsc3-c3ccsc3)ccc2N1 = 100 to 1000 nM
• O=C1CSc2cc(OCCN3CCCC3c3cccc(F)c3)ccc2N1 (stereo not drawn) = < 100 nM
• O=C1CCc2cc(NC(=O)c3scnc3-c3cc(F)cc(F)c3)ccc2N1 = < 100 nM
• O=C1CCc2cc(OCCN3CCCC3c3ccc(F)cc3)ccc2N1 (stereo not drawn) = < 100 nM
• O=c1ccc2cc(OCCN3CCCC3c3cccc(F)c3)ccc2[nH]1 (stereo not drawn) = < 100 nM

q: Supply measured IC50 of O=C1CCc2cc(OCCN3CCCC3c3ccsc3)ccc2N1 (stereo not drawn) in your reply.
a: < 100 nM

q: Please give the documented IC50 of CC1(c2ccccc2)COCCN1CCOc1ccc2c(c1)CCC(=O)N2 (stereo not drawn)
a: 100 to 1000 nM

q: Give the value of IC50 reported for the following: O=C1CCc2cc(OCCN3CCCC3c3ccccn3)ccc2N1 (stereo not drawn)
a: 100 to 1000 nM
